Reference for the values: patent US20250011363A1

assayedTarget: acetylcholine receptor
testName: SPR, AchR immobilized on CM5 chip, peptide at 10 µM
testReadout: Binding affinity (RU)

[
  {
    "binder": "KSYTK [5mer-405]",
    "Binding affinity (RU)": 68
  },
  {
    "binder": "RLQCR [5mer-109]",
    "Binding affinity (RU)": 68
  },
  {
    "binder": "RVRSR [5mer-438]",
    "Binding affinity (RU)": 76
  },
  {
    "binder": "KSVLK [5mer-111]",
    "Binding affinity (RU)": 85
  },
  {
    "binder": "KWRCR [5mer-433]",
    "Binding affinity (RU)": 73
  }
]

I: KVFRK [5mer-408]
II: RGQQR [5mer-105]
q: Which value of Binding affinity (RU) is smaller, the one for I or the one for II ? Please respond with the label that marks your chosen entry.
a: II
(II: 50 RU, I: 74 RU)
